biological target: anti-A046 antibody (Fibronectin PET); experiment: peptide competition assay in 6% BSA
Where no end group is shown, it is not given here.
readout: pIC50
Please treat pIC50 as minus the base-10 logarithm of the molar concentration.

### Prompt Please supply the value of reported pIC50 for the item CTTQNYDADQK-NH2 [A046 peptide (Fibronectin), …-NH2]
### Response 7.70
